- ASSAYED_TARGET: EGFR on EGFR positive non-small cell lung cancer cells NCI-H1650 (UniProt P00533 25-1210)
- EXPERIMENT_DESCRIPTION: cell-based or functional assay
The entries below are paired with their reported H1650 CTG-3D EC50.
Give the quantity in µg/mL, number only.

Known results for binders:
[
  {
    "BINDER": "AbG-SR (antibody, human IgG1, kappa, V domains shown, synthon SR on reduced interchain cysteines; average DAR 2.8 per ADC) VH: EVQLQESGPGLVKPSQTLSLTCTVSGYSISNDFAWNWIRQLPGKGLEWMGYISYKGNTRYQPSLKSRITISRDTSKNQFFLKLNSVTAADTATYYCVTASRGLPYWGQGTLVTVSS VL: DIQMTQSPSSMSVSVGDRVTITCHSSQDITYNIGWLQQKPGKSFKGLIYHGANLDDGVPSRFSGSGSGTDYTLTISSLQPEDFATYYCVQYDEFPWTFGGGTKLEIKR",
    "H1650 CTG-3D EC50 (µg/mL)": 1.31
  },
  {
    "BINDER": "AbA-CZ (antibody, human IgG1, kappa, V domains shown, synthon CZ on reduced interchain cysteines; average DAR 3.2 per ADC) VH: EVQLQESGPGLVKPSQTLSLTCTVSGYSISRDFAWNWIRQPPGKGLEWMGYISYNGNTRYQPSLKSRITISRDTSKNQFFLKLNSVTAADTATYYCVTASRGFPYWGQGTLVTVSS VL: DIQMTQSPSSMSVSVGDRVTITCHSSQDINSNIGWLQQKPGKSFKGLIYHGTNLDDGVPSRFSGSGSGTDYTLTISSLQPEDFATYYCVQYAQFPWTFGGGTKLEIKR",
    "H1650 CTG-3D EC50 (µg/mL)": 0.88
  }
]

Attention now shifts to the item below.
Dear colleague, I am looking for the recorded H1650 CTG-3D EC50 of the following binder: AbA-SE (antibody, human IgG1, kappa, V domains shown, synthon SE on reduced interchain cysteines; average DAR 2.8 per ADC) VH: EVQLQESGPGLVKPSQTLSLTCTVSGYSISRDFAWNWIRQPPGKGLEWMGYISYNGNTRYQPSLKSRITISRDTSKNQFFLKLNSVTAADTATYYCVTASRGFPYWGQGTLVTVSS VL: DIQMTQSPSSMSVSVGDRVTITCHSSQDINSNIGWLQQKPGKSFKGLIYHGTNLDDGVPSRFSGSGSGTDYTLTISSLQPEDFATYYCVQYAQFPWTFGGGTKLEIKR
4

Value source: patent US20240199745A1
